Recorded Population Pyknosed Nuclei (%), one value per entry.
Tested on: HEK-293T
Assay: Multiplex assay against HEK293T
Type: toxicity, cell-based
Conditions: human, 48 h, 10 µM, compound concentration 10 uM, replicate 1
value.type: Population Pyknosed Nuclei (%)

| compound | tested.system | recorded.result |
| --- | --- | --- |
| Cc1cc(C)cc(-c2cnc3cc(Cl)c(-c4cccc(O)c4)cc3c2OCCCN)c1 | HEK-293T | 71 |
| Cc1csc2c(N[C@@H](C)CN3CCN(S(=O)(=O)c4ccc(Cl)c(Cl)c4)CC3)ncnc12 | HEK-293T | 72 |
| CN1CCN(c2ccc(OC(F)(F)F)c(Nc3ncc4c(n3)-c3c(c(C(N)=O)nn3CCO)CC4)c2)CC1 | HEK-293T | 55 |
| O=C1NCN(c2ccccc2)C12CCN(CCCOc1ccc(F)cc1)CC2 [SPIRAMIDE] | HEK-293T | 51 |
| OC1(c2ccc(Cl)cc2)CCN(Cc2c[nH]c3ccccc23)CC1 | HEK-293T | 77 |
| C[C@@]1(C(=O)Nc2ccc(F)nc2)CCCN1c1nc(Nc2cc(C3CC3)n[nH]2)c2cccn2n1 | HEK-293T | 74 |
| CC[C@H](C)C(=O)O[C@H]1C[C@@H](C)C=C2C=C[C@H](C)[C@H](CC[C@@H]3C[C@@H](O)CC(=O)O3)[C@H]21 | HEK-293T | 45 |
| C=CC(=O)Nc1cccc(C(=O)Nc2ccc(Nc3cc(-c4[nH]c(SC)nc4C)ccn3)cc2)c1 | HEK-293T | 40 |
| CNCc1ccccc1-c1csc([C@H](C)Nc2nc(C)nc3cc(OC)c(OC)cc23)c1 | HEK-293T | 68 |
| CNc1nc(NCc2ccc(NS(C)(=O)=O)cc2Cl)cc(-c2ccccn2)n1 | HEK-293T | 54 |
| COc1ncc(-c2ccc3nccc(-c4ccnnc4)c3c2)cc1NS(=O)(=O)c1ccc(F)cc1F | HEK-293T | 55 |

###

Tested on: Fibroblast
Assay: Incucyte cell viability with human fibroblast; note: filed as whole numbers so only -1 and 0 and 1 occur
Type: toxicity, cell-based
Conditions: 6 h, 10 µM, compound concentration 10 uM, replicate number 1, timepoint 6 hours

| molecule | Growth Rate |
| --- | --- |
| O=C(O)c1ccc(-c2coc3ncc(-c4ccccc4)cc23)cc1Cl | 1 |
| Cn1c(-c2csc(C3CCN(CC4=NC5N=CC=CC5N4)CC3)n2)nc2ccccc21 (stereo not drawn) | 0 |
| CC(C)(O)CNc1ncc(-c2ccnc(Nc3ccnc(Cl)c3)n2)c(CC2CC2)n1 | 0 |

###

Tested on: HEK-293T
Assay: Incucyte cell viability with HEK293T; note: filed as whole numbers so only -1 and 0 and 1 occur
Format: toxicity, cell-based
Conditions: human, 24 h, 10 µM, compound concentration 10 uM, replicate number 2, timepoint 24 hours

| molecule | Growth Rate |
| --- | --- |
| CC[C@@H]1[C@H](F)C(=O)N[C@@H]1COc1nccc2cc(C(N)=O)c(OC)cc12 | 1 |
| O=C(NCCCN1CCOC1=O)c1cnc(NCc2cc(Br)ccc2Br)nc1NC1CCCC1 | 0 |
| CS(=O)(=O)c1cccc(NC(=O)N(Cc2ccc(C(=O)Nc3nn[nH]n3)cc2)c2ccc(C3CCCCC3)cc2)c1 | 0 |
| CC1=C(C#N)C(c2ccc3[nH]nc(C)c3c2)C(C#N)=C(C)N1 | 1 |
| NC(=O)c1ccc(NC(=O)NCc2cccc(C(=O)Nc3ccc4c(c3)CNCC4)c2)cc1 | 1 |
| N#Cc1c(O)nc(SCc2cccc(F)c2F)nc1C1CC1 | 0 |
| COc1cc(-c2cn([C@H]3CCc4c(F)cccc4N(CC(F)(F)F)C3=O)nn2)ccc1-n1cnc(C)c1 | 0 |
| O=C(NCc1ccccc1)c1ccc(S(=O)(=O)NCc2ccccc2)cc1 | 1 |
| CN(C)C(=O)/C(C#N)=C/c1ccc(-c2nc3cnc4[nH]ccc4c3n2C2CCCCC2)o1 | 1 |
| CN([C@@H]1CCc2c(CC(=O)O)c3cc(S(C)(=O)=O)ccc3n2C1)S(=O)(=O)c1ccc(F)cc1 [CRTH2-negative-control] | 1 |
| Cc1nc(C2CCN(C(=O)c3ccc(OC(F)(F)F)cc3N)CC2)c2ncc(N3CCN(C)CC3)cc2n1 | 1 |
| Br.Br.N=C(N)SCCc1c[nH]cn1 | 0 |

###

System: Fibroblast
Assay: Multiplex assay against human fibroblast
Type: toxicity, cell-based
Settings: 24 h, 1 µM, compound concentration 1 uM, replicate 1
value.type: Population Hoechst High Intensity Objects (%)

| compound | unit.spec | recorded.result |
| --- | --- | --- |
| CN1CCCC(n2nc(Cc3ccc(Cl)cc3)c3ccccc3c2=O)CC1.Cl (stereo not drawn) [AZELASTINE HYDROCHLORIDE] | % | 10 |
| OC1(c2ccc(Cl)cc2)CCN(Cc2c[nH]c3ccccc23)CC1 | % | 14 |
| CN1CCN(c2ccc(OC(F)(F)F)c(Nc3ncc4c(n3)-c3c(c(C(N)=O)nn3CCO)CC4)c2)CC1 | % | 24 |
